System: KARPAS-45
Test: selective drug sensitivity score (sDSS, relative to normal bone marrow) (sDSS (score)); higher = more potent and effective on the cell line relative to normal bone marrow cells;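 further: ALL cell lines in 384-well plates, five doses spanning 10,000-fold, each plate scaled between vehicle and 100 µmol/L benzalkonium chloride controls, sDSS an adapted area-under-curve metric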
Settings: 72 h
For each entry below, report its selective drug sensitivity score value.
One number for each entry.

>>> result_value("FC(F)(F)c1ccc(/C=C/c2nc(COc3ccc(CCCCn4ccnn4)cc3)co2)cc1 [Mubritinib] (top concentration 1000 nM)")
11.6
>>> result_value("COc1nc(N)nc2c1ncn2[C@@H]1O[C@H](CO)[C@@H](O)[C@@H]1O [Nelarabine] (top concentration 10000 nM)")
-9.92
>>> result_value("COc1cc2nccc(Oc3ccc(NC(=O)C4(C(=O)Nc5ccc(F)cc5)CC4)cc3)c2cc1OC [Cabozantinib] (top concentration 1000 nM)")
-2.42
>>> result_value("CC(C)C[C@H](NC(=O)[C@H](CCc1ccccc1)NC(=O)CN1CCOCC1)C(=O)N[C@@H](Cc1ccccc1)C(=O)N[C@@H](CC(C)C)C(=O)[C@@]1(C)CO1 [Carfilzomib] (top concentration 1000 nM)")
0.66
>>> result_value("COc1cc(OC)cc(N(CCNC(C)C)c2ccc3ncc(-c4cnn(C)c4)nc3c2)c1 [Erdafitinib] (top concentration 1000 nM)")
-0.06

Would you mind giving selective drug sensitivity score for every molecule in the list below?
1. C[C@@H](Oc1cc(-n2cnc3ccc(CN4CCN(C)CC4)cc32)sc1C(N)=O)c1ccccc1C(F)(F)F (top concentration 10000 nM)
2. COc1ccc(-c2ccc3ncc4c(c3c2)n(-c2ccc(N3CCNCC3)c(C(F)(F)F)c2)c(=O)n4C)cn1 [NVP-BGT226] (top concentration 1000 nM)
3. CN(C)C/C=C/C(=O)Nc1cc2c(Nc3ccc(F)c(Cl)c3)ncnc2cc1O[C@H]1CCOC1 [Afatinib] (top concentration 1000 nM)

[28.8, 3.42, 1.06]

====

For each entry below, report its selective drug sensitivity score value.
Test system: JURKAT
Experiment: selective drug sensitivity score (sDSS, relative to normal bone marrow) (sDSS (score)); higher = more potent and effective on the cell line relative to normal bone marrow cells
Conditions: 72 h

>>> result_value("CN1CCN(CCOc2cc(OC3CCOCC3)c3c(Nc4c(Cl)ccc5c4OCO5)ncnc3c2)CC1 [Saracatinib] (top concentration 10000 nM)")
-0.62

Would you mind giving selective drug sensitivity score for every compound in the list below?
1. CCOc1ccccc1-n1c(C(C)N2CCN(C(=O)COc3ccc(Cl)cc3)CC2)nc2ccccc2c1=O (stereo unspecified) [Erastin] (top concentration 10000 nM)
2. COc1ccc(-c2ccc3ncc4c(c3c2)n(-c2ccc(N3CCNCC3)c(C(F)(F)F)c2)c(=O)n4C)cn1 [NVP-BGT226] (top concentration 1000 nM)
3. CCCS(=O)(=O)Nc1ccc(F)c(C(=O)c2c[nH]c3ncc(-c4ccc(Cl)cc4)cc23)c1F [Vemurafenib] (top concentration 10000 nM)
4. FC(F)(F)c1ccc(/C=C/c2nc(COc3ccc(CCCCn4ccnn4)cc3)co2)cc1 [Mubritinib] (top concentration 1000 nM)

-0.16
2.82
2.26
24

Find the recorded selective drug sensitivity score belonging to CC[C@H](C)C(=O)O[C@H]1C[C@@H](C)C=C2C=C[C@H](C)[C@H](CC[C@@H]3C[C@@H](O)CC(=O)O3)[C@H]21 [Lovastatin] (top concentration 10000 nM) and report it.
0.1

====

System: NALM-6
Experiment: selective drug sensitivity score (sDSS, relative to normal bone marrow) (sDSS (score)); higher = more potent and effective on the cell line relative to normal bone marrow cells
Settings: 72 h
For each entry below, report its selective drug sensitivity score value.
One number for each entry.

Some solved entries appear below for comparison.
>>> result_value("Cc1ccc(C(=O)Nc2ccc(CN3CCN(C)CC3)c(C(F)(F)F)c2)cc1C#Cc1cnc2cccnn12 [Ponatinib] (top concentration 1000 nM)")
0.82
>>> result_value("NC(=O)NO [Hydroxyurea] (top concentration 1000000 nM)")
2.56
>>> result_value("CN(C)c1cc2c(cc1Sc1nc3c(N)nccc3n1CCNCC(C)(C)C)OCO2 [CUDC-305] (top concentration 10000 nM)")
4.72

Would you mind giving selective drug sensitivity score for every molecule in the list below?
1. CC(C)(C)NC(=O)[C@H]1CC[C@H]2[C@@H]3CC[C@H]4NC(=O)C=C[C@]4(C)[C@H]3CC[C@]12C [Finasteride] (top concentration 10000 nM)
2. COc1cc(OC2CCN(C)CC2)ccc1Nc1ncc2c(n1)n(C1CCCC1)c(=O)n2C [AZ3146] (top concentration 10000 nM)
3. COC(=O)C[C@](O)(CCCC(C)(C)O)C(=O)O[C@@H]1C(OC)=C[C@]23CCCN2CCc2cc4c(cc2[C@H]13)OCO4 [Omacetaxine] (top concentration 10000 nM)
4. Cc1cnc(-c2ccccc2C(C)C)nc1NCc1ccc(-n2ccnn2)cc1 [ML323] (top concentration 10000 nM)

[-0.52, 3.04, 4.52, 1.84]

Would you mind giving selective drug sensitivity score for every molecule in the list below?
1. C=CC(=O)Nc1cccc(Nc2nc(Nc3ccc(OCCOC)cc3)ncc2F)c1 [Spebrutinib] (top concentration 1000 nM)
2. CNC(=O)c1ccccc1Sc1ccc2c(/C=C/c3ccccn3)n[nH]c2c1 [Axitinib] (top concentration 10000 nM)

1: 2.04; 2: 7.86

Would you mind giving selective drug sensitivity score for every molecule in the list below?
1. NCCNc1ccc(NCCN)c2c1C(=O)c1ccncc1C2=O [Pixantrone] (top concentration 10000 nM)
2. CN(C)C(=O)c1cc2cnc(Nc3ccc(N4CCNCC4)cn3)nc2n1C1CCCC1 [Ribociclib] (top concentration 10000 nM)
3. CO[C@H]1C(=O)[C@]2(C)[C@@H](OC)C[C@H]3OC[C@@]3(OC(C)=O)[C@H]2[C@H](OC(=O)c2ccccc2)[C@]2(O)C[C@H](OC(=O)[C@H](O)[C@@H](NC(=O)OC(C)(C)C)c3ccccc3)C(C)=C1C2(C)C [Cabazitaxel] (top concentration 1000 nM)
4. CN(C)C(=N)NC(=N)N [Metformin] (top concentration 100000 nM)

1. -2.76
2. 1.18
3. 15.9
4. -0.02

Would you mind giving selective drug sensitivity score for every molecule in the list below?
1. O=C(CCNC(=O)c1ccc(OC(F)(F)F)cc1)N[C@@H]1CCCc2ccccc21 [ML390] (top concentration 50000 nM)
2. Cc1nn(C)c(COc2ccc(N3CCN(S(=O)(=O)N(C)C)CC3)cc2)c1-c1cccc2c(CCCOc3cccc4ccccc34)c(C(=O)O)n(CCN3CCOCC3)c12 (top concentration 50000 nM)
3. COc1ccc(CCc2nc3cc(-c4c(C)noc4C)ccc3n2C[C@H](C)N2CCOCC2)cc1Cl [SGC-CBP30] (top concentration 25000 nM)

[10.8, 4.26, 0.08]

====

System: CCRF-HSB2
Assay: selective drug sensitivity score (sDSS, relative to normal bone marrow) (sDSS (score)); higher = more potent and effective on the cell line relative to normal bone marrow cells
Conditions: 72 h
MEASURED_PROPERTY: selective drug sensitivity score

>>> result_value("Cc1ccc(NC(=O)c2ccc(CN3CC[C@H](N(C)C)C3)c(C(F)(F)F)c2)cc1Nc1nccc(-c2cncnc2)n1 [Bafetinib] (top concentration 1000 nM)")
9.9

Would you mind giving selective drug sensitivity score for every molecule in the list below?
1. COc1ccc(-c2nc(N3CCOCC3)c3sc(CN(C)c4ncc(C(=O)NO)cn4)cc3n2)cn1 [Fimepinostat (CUDC-907)] (top concentration 10000 nM)
2. CNC(=O)c1ccccc1Nc1cc(Nc2ccc(N3CCOCC3)cc2OC)ncc1C(F)(F)F [VS-4718] (top concentration 10000 nM)

1: 1.68; 2: 3.5

====

For each entry below, report its selective drug sensitivity score value.
System: 697
Assay: selective drug sensitivity score (sDSS, relative to normal bone marrow) (sDSS (score)); higher = more potent and effective on the cell line relative to normal bone marrow cells
Settings: 72 h

Some solved entries appear below for comparison.
>>> result_value("CC[C@H](NC(=O)[C@H](C)NC)C(=O)N1C[C@@H](O)C[C@H]1Cc1c(-c2[nH]c3cc(F)ccc3c2C[C@@H]2C[C@H](O)CN2C(=O)[C@H](CC)NC(=O)[C@H](C)NC)[nH]c2cc(F)ccc12 [Birinapant] (top concentration 1000 nM)")
-5.1
>>> result_value("COc1cc2c(cc1OC(C)C)[C@H](c1ccc(Cl)cc1)N(c1ccc(N(C)C[C@H]3CC[C@H](N4CCN(C)C(=O)C4)CC3)cc1)C(=O)C2 [NVP-CGM097] (top concentration 25000 nM)")
7.86
>>> result_value("Nc1nc2[nH]cnc2c(=S)[nH]1 [Thioguanine] (top concentration 10000 nM)")
8.84

Would you mind giving selective drug sensitivity score for every molecule in the list below?
1. Cc1nn(C)c(COc2ccc(N3CCN(S(=O)(=O)N(C)C)CC3)cc2)c1-c1cccc2c(CCCOc3cccc4ccccc34)c(C(=O)O)n(CCN3CCOCC3)c12 (top concentration 50000 nM)
2. O=C(CCNC(=O)c1ccc(OC(F)(F)F)cc1)N[C@@H]1CCCc2ccccc21 [ML390] (top concentration 50000 nM)

1: 4.36; 2: 16.4

// provenance: the supplement of paper PMC8967900
